The entries below come with measured IC50 values attached.
Assay: In vitro cytotoxicity assay on MRC-5 fibroblasts
Assay type: cell-based
Details: human
Method: The cytotoxicity of compounds on MRC-5 fibroblasts was performed exactly as previously reported.
parameter.measured: IC50 (µM)

> print(dat)
                                   molecule  unit  result.comparator  data.value
1  Cc1cn(C2CCCN(CCc3cccc(Oc4ccccc4)c3)C2)c(=O)[nH]c1=O (stereo not drawn)    µM                  =        21.8
2  c1ccc(Oc2cccc(CCN3CCC(c4ccccc4)CC3)c2)cc1    µM                  =        8.06
3  Cc1cn(C2CCN(C(=O)Cc3cccc(Oc4ccccc4)c3)CC2)c(=O)[nH]c1=O    µM                  >          64

Reference for the values: paper PMC7356956
